Tested on: U2OS
method: Multiplex assay against U2OS
Format: toxicity, cell-based
conditions used: human, 48 h, 1 µM, compound concentration 1 uM, replicate 2
Response field label takes met when Population Tubulin-Different-Phenotype (%) is strictly below 6% and not met in all other cases.

{"molecule": "CN1CCN(c2nc3cc(C(F)(F)F)ccc3n3cccc23)CC1.O=C(O)/C=C\\C(=O)O.O=C(O)/C=C\\C(=O)O", "classification": "met"}
{"molecule": "Cl.Clc1ccc2nsnc2c1NC1=NCCN1 [TIZANIDINE HYDROCHLORIDE]", "classification": "met"}
{"molecule": "COc1cc(NC(=O)CCN2CCC(OC(=O)Nc3ccccc3-c3ccccc3)CC2)c(Cl)cc1CNC[C@H](O)c1ccc(O)c2[nH]c(=O)ccc12", "classification": "met"}
{"molecule": "O=S(=O)(c1ccccc1)c1cnc2c(N3CCNCC3)cccc2c1 [INTEPIRDINE]", "classification": "met"}
{"molecule": "CC[C@H]1OC(=O)[C@H](C)[C@@H](O[C@H]2C[C@@](C)(OC)[C@@H](O)[C@H](C)O2)[C@H](C)[C@@H](O[C@@H]2O[C@H](C)C[C@H](N(C)C)[C@H]2O)[C@@]2(C)CC(C)=C(O2)[C@H](C)[C@@H](O)[C@]1(C)O", "classification": "not met"}
{"molecule": "CNC[C@H](O)c1ccc(O)c(O)c1 [EPINEPHRINE]", "classification": "met"}
{"molecule": "CSc1ccccc1N1CCN(CCCCCC(=O)NC2CCCc3ccccc32)CC1.Cl (stereo unspecified)", "classification": "not met"}
{"molecule": "CC1(COc2ccc3c(c2)ncn3-c2ccc3cccc(N4CCC(N)CC4)c3n2)COC1", "classification": "not met"}
{"molecule": "Oc1c(CN2CCN(c3ccccn3)CC2)cc(Cl)c2cccnc12", "classification": "met"}
{"molecule": "Cc1ccc(C(C)(O)c2nc3ccccc3s2)c(C)c1 (stereo unspecified)", "classification": "met"}
{"molecule": "O=C(O)Cc1ccccc1Nc1c(Cl)cccc1Cl", "classification": "met"}
{"molecule": "C[C@H](NC(=O)c1c(C(F)F)nn(C)c1Oc1cccc(C(F)(F)F)c1)c1ccc(C(=O)O)cc1", "classification": "met"}
{"molecule": "CCNC1(C(N)=O)CCN(c2ncnc3c2nc(-c2ccccc2Cl)n3-c2ccc(Cl)cc2)CC1", "classification": "not met"}
{"molecule": "O=C(O)c1cc2ccccc2c(Cc2c(O)c(C(=O)O)cc3ccccc23)c1O", "classification": "met"}
{"molecule": "CC(=O)NCCc1c(Cc2ccccc2)[nH]c2ccccc12", "classification": "met"}
{"molecule": "Cc1ccccc1C(=O)Nc1ccc(C(=O)N2CCCC(N(C)C)c3ccccc32)cc1.Cl (stereo unspecified)", "classification": "met"}
{"molecule": "c1cc(OCCCN2CCCCC2)ccc1CN1CCCCC1", "classification": "met"}
{"molecule": "O=C(NCC(=O)N1CC[C@H](N[C@H]2CC[C@@](O)(c3ccc(-c4ncccn4)cn3)CC2)C1)c1cccc(C(F)(F)F)c1", "classification": "met"}

----------
Test system: U2OS
method: Multiplex assay against U2OS
Assay type: toxicity, cell-based
conditions used: human, 48 h, 10 µM, compound concentration 10 uM, replicate 1
endpoint label: Population Membrane Permeable-Phenotype (%)

{"compound": "CC1(COc2ccc3c(c2)ncn3-c2ccc3cccc(N4CCC(N)CC4)c3n2)COC1 [CRENOLANIB]", "unit": "%", "value reported": 43}
{"compound": "CCOc1c2c(c(OCC)c3ncccc13)CN(c1ccc(CS(=O)(=O)NC(=O)Cc3ccccc3OC)cc1C)C2=O", "unit": "%", "value reported": 5}
{"compound": "Cc1ccccc1C(=O)Nc1ccc(C(=O)N2CCCC(N(C)C)c3ccccc32)cc1.Cl (stereo not drawn)", "unit": "%", "value reported": 17}
{"compound": "CSc1ccccc1N1CCN(CCCCCC(=O)NC2CCCc3ccccc32)CC1.Cl (stereo not drawn)", "unit": "%", "value reported": 77}
{"compound": "CCCN1CCC[C@@H]2Cc3n[nH]cc3C[C@H]21.Cl [QUINPIROLE HYDROCHLORIDE]", "unit": "%", "value reported": 4}
{"compound": "CN1CCN(c2nc3cc(C(F)(F)F)ccc3n3cccc23)CC1.O=C(O)/C=C\\C(=O)O.O=C(O)/C=C\\C(=O)O", "unit": "%", "value reported": 16}
{"compound": "C[C@H]1[C@H]2CC[C@H]3[C@@H]4CC=C5C[C@@H](N(C)C)CC[C@]5(C)[C@H]4CC[C@]23CN1C [CONESSINE]", "unit": "%", "value reported": 4}
{"compound": "Cc1ccc(F)cc1C(=O)Nc1ccc(C(=O)N2Cc3cccn3Cc3ccccc32)c(Cl)c1 [LIXIVAPTAN]", "unit": "%", "value reported": 49}
